Can you tell me growth inhibition for the items I'm about to list?
measurementDescription: NCI Yeast Anticancer Drug Screen. Data for the cln2 rad14 strain (AID 165);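 also: 0% = growth equal to vehicle treated cultures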
details: S. cerevisiae cln2 rad14 strain, active compounds read high; at 50.0 µM unless noted
This is part of a sample that, as a whole, favours compounds with a hit. Of some 79,000 tested, about 15% had one in any assay.
One number for each entry, in %.

compound | growth inhibition [%]
O=C(O)c1cc(Cl)cc(C(=O)O)n1 | 16.1
CCCCCCCCOC(=O)NC1c2ccccc2Oc2c(C)cccc21 (stereo not given) | -30.1
COc1nc(NC2OC(CO)C(O)C(O)C2O)c(I)c(=O)[nH]1 (stereo not given) | -6.25
CC(=O)[C@@]1(O)CC[C@H]2[C@@H]3CC[C@@H]4C[C@H](O)CC[C@]4(C)[C@H]3[C@H](O)C[C@@]21C | -34.1
CC(C)(C)N=NNc1cn(C2OC(CO)C(O)C2O)c(=O)[nH]c1=O (stereo not given) | 9.5
Nc1nc(NCCO)c(NC=O)c(=O)[nH]1 | -34.4

Batch of 4 compounds: report growth inhibition for each.
1. Cn1cc2c([N+](=O)[O-])cccc2n1
2. N#C/C(=C/c1ccccc1)c1ccccc1
3. Cc1ccc(Nc2nc(N)nc3c2ncn3C2OC(CO)C(O)C2O)cc1 (stereo not given)
4. ClC1CCC[N-]C1.ClC1CCC[N-]C1.[Cl][Pt+2][Cl] (stereo not given)

result:
1: -4.6; 2: 14.5; 3: -3.75; 4: -28.6

Batch of 2 compounds: report growth inhibition for each.
1. O=C(c1ccccc1)c1ccc2c(c1)N=C(c1ccc(Cl)c(Cl)c1)CC(c1ccc3ccccc3c1)N2 (stereo not given)
2. CSC1N=CNc2c1sc(=S)n2-c1ccccc1 (stereo not given)

result:
1. -33.5
2. -3.9

Batch of 3 compounds: report growth inhibition for each.
1. Clc1ccccc1/C=N\N=C\c1ccco1
2. CN1c2ccccc2N(C(=O)c2ccc(Cl)cc2)C(CC(=O)O)c2cccn21 (stereo not given)
3. Cc1cc(Cl)ccc1NC(=O)Oc1ccc(C#N)cc1

result:
[-40.4, 44.8, -10.6]

Batch of 2 compounds: report growth inhibition for each.
1. O=S1(=O)CCC12CC1c3ccccc3C2c2ccccc21 (stereo not given)
2. O=C(NC(CO)Cc1ccccc1)OCc1ccccc1 (stereo not given)

result:
-2.85
5.45

Batch of 8 compounds: report growth inhibition for each.
1. O=C(c1ccccc1)c1ccc(NC(=O)C(F)(F)F)cc1
2. CC(C)C1N(N2C(=O)CS(=O)(=O)C2C(C)C)C(=O)CS1(=O)=O (stereo not given)
3. CN1CCC/C1=N\C(=Nc1ccccc1)N1CCCC1
4. COC(=O)c1cc(Br)cc(Br)c1N
5. Cn1c(=S)[nH]c2c(Cl)cc(Cl)cc2c1=O
6. O=C(O)CCSCCC(=O)O
7. COc1ccc(-c2sc(C)nc2O)cc1
8. CC1CCC2C(=O)OC(=O)C2C1 (stereo not given)

result:
1. 4.75
2. 6.75
3. 12.5
4. -35.1
5. -13.9
6. -48.4
7. -20.8
8. 23.6

* * *

measurementDescription: NCI Yeast Anticancer Drug Screen. Data for the mlh1 rad18 strain (AID 175)
details: S. cerevisiae mlh1 rad18 strain growth inhibition, active compounds read high; at 50.0 µM unless noted
Method: Growth inhibition of yeast strains with defined genetic alterations is measured as a screen for potential anti-cancer activity. Selected strains with alterations in DNA damage repair or cell cycle control were exposed to compounds and growth inhibition was measured relative to vehicle treated controls. The strain used in this assay is mlh1 rad18
About 79,000 compounds went through this panel and 15% of them were active in at least one assay; those are over-represented in the sample as a whole.
Can you tell me growth inhibition for the items I'm about to list?
Answers are plain numbers, in %.

Look over these answered cases.
molecule | growth inhibition (%)
BrC1CC2CCC1CC2 (configuration not stated) | 16.6
CN(C)/C(N)=N\c1nc(O)cc(=O)[nH]1 | 10.1
CCCCC(C#N)C(=O)NC(N)=O (configuration not stated) | -7.25

Batch of 4 molecules: report growth inhibition for each.
1. COC(=O)C(=O)C1CCCC(C)(c2ccccc2)C1 (configuration not stated)
2. CCN1c2ccccc2CC(CCCN(C)C)(C(N)=O)c2ccccc21 (configuration not stated)
3. CSc1ccc2nncc(SC)c2c1
4. O=Cc1c2cnc(c1O)CSCc1ccc(cc1)CSC2

result:
1: -4.7; 2: -8.25; 3: 40.9; 4: 23.5

* * *

measurementDescription: NCI Yeast Anticancer Drug Screen. Data for the cln2 rad14 strain (AID 165);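 also: 0% = growth equal to vehicle treated cultures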
details: S. cerevisiae cln2 rad14 strain, active compounds read high; at 50.0 µM unless noted
Compounds without any hit were thinned out: in the full panel of roughly 79,000, 15% have a hit. Where a SMILES comes first, the peptide text is derived from it. The star is where a group is joined. Cbz = O=C(OCc1ccccc1)*
observedProperty: growth inhibition (%)
One number for each entry, in %.

Look over these answered cases.
compound | growth inhibition (%)
Clc1nc2n(c1/C=C/c1cccs1)CCS2 | 13.9
CCC(CC)C(O)C(C)C(C)O (configuration not stated) | 4.8
COC(=O)C(CC(C)C)NC(=O)C(CC(N)=O)NC(=O)C(NC(=O)OCc1ccccc1)C(C)C (stereo not drawn) (Cbz-Val-Asn-Leu-OMe; configuration not given here) | 14.7
C[N+](C)(C)c1ccc2[nH]c3ccccc3c2c1 | -27.8
O=C1c2ccccc2CC(c2ccccc2)N1c1ccccc1 (configuration not stated) | -22.4

Batch of 8 compounds: report growth inhibition for each.
1. O=C(O)CNC(=S)SCC(=O)O
2. O=C(O)/C(=C/c1cccs1)c1ccc(F)cc1
3. N.N.O=P([O-])([O-])C1(P(=O)([O-])[O-])CCCCCN1.[Pt+2]
4. COC(=O)c1ccccc1-c1ccccc1C(=O)O
5. CCOc1ccc(OCC)cc1
6. O=C(O)c1cccc(C(=O)O)c1Sc1ccccc1
7. C=CCNC1=C(NC(C)=O)C(=O)c2ccccc2C1=O
8. CN(C)C1=CC(=S)NC(c2ccccc2)C1 (configuration not stated)

result:
1: -32.4; 2: 28.9; 3: 6.25; 4: -13.8; 5: -29.3; 6: 11.3; 7: -31.2; 8: -11.8

Batch of 7 compounds: report growth inhibition for each.
1. O=C1C2C(c3ccccc3)NC(c3ccccc3)C1C(c1ccccc1)NC2c1ccccc1 (configuration not stated)
2. COc1ccc2[nH]c3ccccc3c(=O)c2c1
3. CCOC(=O)CN(c1ccccc1)c1nc(=[N+](C)C)ss1
4. Cc1cc2ccccc2c[n+]1CC(O)C[n+]1cc2ccccc2cc1C
5. COc1cc(C2c3cc4c(cc3OC(N3CCOCC3)C2C)OCO4)cc(OC)c1O (configuration not stated)
6. OC1CN(c2ccc(Br)cc2)CC(O)CN(c2ccc(Br)cc2)C1 (configuration not stated)
7. O=C(NC(Cc1ccc(I)cc1)C(=O)O)c1ccc(Br)cc1 (configuration not stated)

result:
-18.1
-66.4
2.55
-27.7
-12.5
99.5
12.1

Batch of 6 compounds: report growth inhibition for each.
1. CNc1nc(=O)[nH]c(C)c1[N+](=O)[O-]
2. O=C(NCCCl)c1ccc(Cl)c(Cl)c1
3. O=C1[C@H]2ON(c3ccccc3)C(c3ccccc3)[C@H]2C(=O)N1c1ccc(Cc2ccc(N3C(=O)[C@@H]4ON(c5ccccc5)C(c5ccccc5)[C@@H]4C3=O)cc2)cc1 (some centres not stated)
4. CCOCC(Br)C(OCC)OCC (configuration not stated)
5. Cc1ccc(-c2c(C)c(-c3ccccc3)c(-c3ccccc3)c(C)c2-c2ccccc2)cc1C
6. CCCC1([N+]2(C)CCCC2)CS(=O)C1CC (configuration not stated)

result:
-60.8
-20.9
21.5
20.9
82
-4.8

Batch of 2 compounds: report growth inhibition for each.
1. O=C(O)CCN(CCCCN(CCC(=O)O)CCC(=O)O)CCC(=O)O
2. CN1CCN(C(=S)N(C)C(=O)c2ccco2)CC1

result:
1: 1.4; 2: -8.85

Batch of 4 compounds: report growth inhibition for each.
1. O=C1C(CN2CCCC2)CCCC1CN1CCCC1 (configuration not stated)
2. CC(=O)OC1CCC2(C)C(CCC3C2C(=O)C(OC(C)=O)C2(C)C3CC3OC4(CCC(C)CO4)C(C)C32)C1 (configuration not stated)
3. OCCN1CCN=C1Cc1ccccc1
4. CCN(CC)c1nc(Cl)nc(Nc2ccc3cc(-c4ccccc4)c(=O)oc3c2)n1

result:
1: 2.15; 2: 3.6; 3: 14.2; 4: 8.05

Batch of 4 compounds: report growth inhibition for each.
1. CN(C)c1ccc(C2NC(=S)NC3=C2CCCC3)cc1 (configuration not stated)
2. Cc1ccc(C)c(NC(=O)Nc2ccccc2)c1
3. CC(C)c1ccc(C2NC(c3ccccc3)c3c(ccc4ccccc34)O2)cc1 (configuration not stated)
4. CC1=CSC2=NCCCCN12

result:
1. -20.6
2. -25.1
3. 0.5
4. 8.55

Batch of 4 compounds: report growth inhibition for each.
1. CCN(CC)CCN1CC(=O)N2CCCCN2C(=O)C1
2. NC(=O)Nc1ccccc1-c1ccccc1
3. CCn1nc(C)c2c1C(=O)NC(C)C(=O)N2 (configuration not stated)
4. Nc1nc2cc(F)ccc2o1

result:
[13.4, -26.4, 16.4, -20.1]

Batch of 7 compounds: report growth inhibition for each.
1. COc1ccc(/C(C)=C\C(=O)O)c(O)c1OC
2. [Mn+2].[NH-]C(Cc1ccc(O)cc1)C(=O)O.[NH-]C(Cc1ccc(O)cc1)C(=O)O (configuration not stated)
3. O=c1ccn(C2OC(COC3CCCCO3)C(OC3CCCCO3)C2OC2CCCCO2)c(=O)n1-c1ccccc1 (configuration not stated)
4. C=C1C(=O)C23[C@H](O)C1CC[C@H]2[C@]12COC3(O)[C@@H](O)[C@@H]1C(C)(C)CC[C@@H]2O
5. Cc1cc(=O)[nH]c(N/N=C/C=C/c2ccccc2)n1
6. Cc1cnc2ccccc2n1 (tested in a mixture with another compound)
7. COC(=O)C1Cc2c([nH]c3ccccc23)C=N1 (configuration not stated)

result:
[3.55, -19.1, -1.4, -0.6, -15.8, 8, 45.5]
